Experiment: AP1 Signaling Pathway (AID 357);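 further: ME-180 reporter cells stimulated with EGF at its EC50 level; on the % scale 0 is the no-effect control and ±100 the full control effect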
Conditions: ME-180 (cervical carcinoma) AP-1-bla reporter, EGF-induced, beta-lactamase ratio, 5 h; at 7.69 µM (top of the series) unless noted
Results filed as inconclusive are left out. The source made the active and inactive calls. The call rests on the fitted dose curve; in most records, active means well fitted curve in either direction with a large enough effect (not every such curve was filed as active); inconclusive means small, poorly fitted or top-dose-only effect, or another doubt; inactive means flat fitted curve, though single readings scatter.
In this section we review reported activity change, negative = inhibition values for a set of compounds.

compound=CCCn1cnc2c(SCC(=O)O)nc(N)nc21 result="0.287% (inactive)"

[ask] For the compound CN(C)Cc1cc(Cl)c(O)c(CN(C)C)c1 , give its measured activity change, negative = inhibition value.
[reply] 0.0803% (inactive)

[ask] For the compound N=C(N)SCc1cccc2c(=O)cc(-c3ccccc3)oc12 , give its measured activity change, negative = inhibition value.
[reply] 28% (inactive)

[ask] For the compound Cc1c2cnccc2c(C)c2c1c1ccccc1n2CCOC(=O)c1ccccc1 , give its measured activity change, negative = inhibition value.
[reply] 2.26% (inactive)

----------
Target: Cytochrome P450 3A4 (Homo sapiens)
Experiment: qHTS Assay for Inhibitors and Substrates of Cytochrome P450 3A4 (AID 884); further: nearly all actives have a fitted effect of over 50% in size
Details: recombinant CYP3A4, Luciferin-PPXE luminescence; series mostly up to 57.1 µM
Results filed as inconclusive are left out. Activity calls are given as the source filed them. Calls follow the shape of the dose curve; as a rule, active = well fitted inhibition curve with a large enough effect; inconclusive = small, poorly fitted or top-dose-only effect; inactive = no such curve, though single readings can be large or run the other way.
Hello, when you answer, please use one of the following outcomes: active, inactive

As a guide, the following entries are already answered.
compound=C1CCCNCC1 target_under_test="Cytochrome P450 3A4 (Homo sapiens)" label_class=inactive
compound=O=C(O)/C=C/c1ccc(/C=C/C(=O)O)cc1 target_under_test="Cytochrome P450 3A4 (Homo sapiens)" label_class=inactive
compound=CC(C)COC(=O)COc1cc(Cl)c(Cl)cc1Cl target_under_test="Cytochrome P450 3A4 (Homo sapiens)" label_class=inactive
compound=CC/C=C/C/C=C/C/C=C/CCCCCCCC(=O)OCC target_under_test="Cytochrome P450 3A4 (Homo sapiens)" label_class=active
compound=Cc1ccc(C(=O)O)cc1[N+](=O)[O-] target_under_test="Cytochrome P450 3A4 (Homo sapiens)" label_class=inactive
compound=COc1ccccc1-c1nc(NCc2ccccc2)c2ccccc2n1 target_under_test="Cytochrome P450 3A4 (Homo sapiens)" label_class=active
compound=c1ccc(SCCc2ccncc2)cc1 target_under_test="Cytochrome P450 3A4 (Homo sapiens)" label_class=active
compound=COc1ccc([N+](=O)[O-])cc1N target_under_test="Cytochrome P450 3A4 (Homo sapiens)" label_class=inactive
compound=Cc1cnc(CNc2nc(-c3cccnc3)nc3ccccc23)cn1 target_under_test="Cytochrome P450 3A4 (Homo sapiens)" label_class=active
compound=CSC1(SC2=NCCN2)SC2(NCCN2)S1 target_under_test="Cytochrome P450 3A4 (Homo sapiens)" label_class=active

[ask] Entry O=C(O)CCc1nc(-c2ccccc2-n2cccc2)no1 : call = ?
[reply] active

[ask] Entry O=C(O)c1ccc([N+](=O)[O-])cc1 : call = ?
[reply] inactive

----------
Assay: MultiTox-Fluor Cytotoxicity Assay - LYMP1-003 - Live Cells (AID 962);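 further: cells exposed to compound for 16 hours at 37 °C; 0% = DMSO only and full loss = 92 µM tetraoctylammonium bromide; cytotoxic hits lower the live-cell protease signal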
Details: LYMP1-003 lymphoblastoid cells, MultiTox-Fluor live-cell protease fluorescence; series mostly up to 92.2 µM
Activity calls are given as the source filed them. Calls follow the shape of the dose curve; as a rule, active = well fitted cell-killing curve with a large enough effect; inconclusive = small, poorly fitted or top-dose-only effect; inactive = flat fitted curve, though single readings scatter.
Hello, when you answer, please use one of the following outcomes: class 1 for active, class 0 for inactive

[ask] Entry Nc1ccc(N=Nc2ccccc2)c(N)c1 : call = ?
[reply] class 0

[ask] Entry c1ccc(COCc2ccccc2)cc1 : call = ?
[reply] class 0
